# MEASUREMENT_NOTES: Ocular biodistribution study following ocular administration
# Type: in vivo, Dutch-Belted rabbits
# RUN_CONDITIONS: male, Dutch-Belted, rabbit, posterior sclera and choroid, other: ocular administration, 0.08 mg/eye, formulation G, 0.08 mg/eye once, 15 min, An#103 right eye; read-out: Squalamine in posterior sclera and choroid
RECORDED_METRIC: concentration at 15 min

Query :: Entry CC(C)[C@@H](CC[C@@H](C)[C@H]1CC[C@H]2[C@@H]3[C@H](O)C[C@H]4C[C@@H](NCCCNCCCCN)CC[C@]4(C)[C@H]3CC[C@]12C)OS(=O)(=O)O : reported concentration at 15 min = ?
Result :: 31.7 ng/g

* * *

# MEASUREMENT_NOTES: Ocular biodistribution study following ocular administration
# Type: in vivo, Dutch-Belted rabbits
# RUN_CONDITIONS: male, Dutch-Belted, rabbit, posterior sclera and choroid, other: ocular administration, 0.08 mg/eye, formulation G, 0.08 mg/eye once, 15 min, An#102 left eye; read-out: Squalamine in posterior sclera and choroid
RECORDED_METRIC: concentration at 15 min (ng/g)
Answers are plain numbers, in ng/g.

Query :: Entry CC(C)[C@@H](CC[C@@H](C)[C@H]1CC[C@H]2[C@@H]3[C@H](O)C[C@H]4C[C@@H](NCCCNCCCCN)CC[C@]4(C)[C@H]3CC[C@]12C)OS(=O)(=O)O : reported concentration at 15 min = ?
Result :: 44.2

* * *

# MEASUREMENT_NOTES: Ocular biodistribution study following ocular administration
# Assay type: in vivo, Dutch-Belted rabbits
# RUN_CONDITIONS: male, Dutch-Belted, rabbit, posterior sclera and choroid, other: ocular administration, 0.08 mg/eye, formulation G, 0.08 mg/eye once, 30 min, An#105 right eye; read-out: Squalamine in posterior sclera and choroid
# Experimental: The objective of this study was to determine the ocular biodistribution of squalamine lactate formulation G (see composition above) when given once by ocular administration to male Dutch-Belted rabbits. The study design was as follows: Body weight measurements were taken for randomization/dose calculation purposes. […] Following dose administration, blood samples were collected at specified time points and plasma was prepared. […]
RECORDED_METRIC: concentration at 30 min (ng/g)
Answers are plain numbers, in ng/g.

Query :: Entry CC(C)[C@@H](CC[C@@H](C)[C@H]1CC[C@H]2[C@@H]3[C@H](O)C[C@H]4C[C@@H](NCCCNCCCCN)CC[C@]4(C)[C@H]3CC[C@]12C)OS(=O)(=O)O [Squalamine] : reported concentration at 30 min = ?
Result :: 78.9

* * *

# MEASUREMENT_NOTES: Ocular biodistribution study following ocular administration
# Type: in vivo, Dutch-Belted rabbits
# RUN_CONDITIONS: male, Dutch-Belted, rabbit, posterior sclera and choroid, other: ocular administration, 0.08 mg/eye, formulation G, 0.08 mg/eye once, 30 min, mean of eyes; read-out: Squalamine in posterior sclera and choroid, Mean
RECORDED_METRIC: concentration at 30 min (ng/g)
Numbers only, in ng/g.

Query :: Entry CC(C)[C@@H](CC[C@@H](C)[C@H]1CC[C@H]2[C@@H]3[C@H](O)C[C@H]4C[C@@H](NCCCNCCCCN)CC[C@]4(C)[C@H]3CC[C@]12C)OS(=O)(=O)O [Squalamine] : reported concentration at 30 min = ?
Result :: 89

* * *

# MEASUREMENT_NOTES: Ocular biodistribution study following ocular administration
# Format: in vivo, Dutch-Belted rabbits
# RUN_CONDITIONS: male, Dutch-Belted, rabbit, posterior sclera and choroid, other: ocular administration, 0.08 mg/eye, formulation G, 0.08 mg/eye once, 15 min, An#103 left eye; read-out: Squalamine in posterior sclera and choroid
RECORDED_METRIC: concentration at 15 min (ng/g)
Give bare numbers, in ng/g.

Query :: Entry CC(C)[C@@H](CC[C@@H](C)[C@H]1CC[C@H]2[C@@H]3[C@H](O)C[C@H]4C[C@@H](NCCCNCCCCN)CC[C@]4(C)[C@H]3CC[C@]12C)OS(=O)(=O)O : reported concentration at 15 min = ?
Result :: 195

* * *

# MEASUREMENT_NOTES: Ocular biodistribution study following ocular administration
# Assay type: in vivo, Dutch-Belted rabbits
# RUN_CONDITIONS: male, Dutch-Belted, rabbit, posterior sclera and choroid, other: ocular administration, 0.08 mg/eye, formulation G, 0.08 mg/eye once, 30 min, An#106 right eye; read-out: Squalamine in posterior sclera and choroid
RECORDED_METRIC: concentration at 30 min
The answer should read as a number with its unit following.

Query :: Entry CC(C)[C@@H](CC[C@@H](C)[C@H]1CC[C@H]2[C@@H]3[C@H](O)C[C@H]4C[C@@H](NCCCNCCCCN)CC[C@]4(C)[C@H]3CC[C@]12C)OS(=O)(=O)O [Squalamine] : reported concentration at 30 min = ?
Result :: 94.1 ng/g

* * *

# MEASUREMENT_NOTES: Ocular biodistribution study following ocular administration
# Format: in vivo, Dutch-Belted rabbits
# RUN_CONDITIONS: male, Dutch-Belted, rabbit, posterior sclera and choroid, other: ocular administration, 0.08 mg/eye, formulation G, 0.08 mg/eye once, 15 min, mean of eyes; read-out: Squalamine in posterior sclera and choroid, Mean
RECORDED_METRIC: concentration at 15 min (ng/g)
Answers are plain numbers, in ng/g.

Query :: Entry CC(C)[C@@H](CC[C@@H](C)[C@H]1CC[C@H]2[C@@H]3[C@H](O)C[C@H]4C[C@@H](NCCCNCCCCN)CC[C@]4(C)[C@H]3CC[C@]12C)OS(=O)(=O)O [Squalamine] : reported concentration at 15 min = ?
Result :: 90.6

* * *

# MEASUREMENT_NOTES: Ocular biodistribution study following ocular administration
# Format: in vivo, Dutch-Belted rabbits
# RUN_CONDITIONS: male, Dutch-Belted, rabbit, posterior sclera and choroid, other: ocular administration, 0.08 mg/eye, formulation G, 0.08 mg/eye once, 15 min, An#101 right eye; read-out: Squalamine in posterior sclera and choroid
RECORDED_METRIC: concentration at 15 min
The answer should read as a number with its unit following.

Query :: Entry CC(C)[C@@H](CC[C@@H](C)[C@H]1CC[C@H]2[C@@H]3[C@H](O)C[C@H]4C[C@@H](NCCCNCCCCN)CC[C@]4(C)[C@H]3CC[C@]12C)OS(=O)(=O)O [Squalamine] : reported concentration at 15 min = ?
Result :: 26.6 ng/g

* * *

# MEASUREMENT_NOTES: Ocular biodistribution study following ocular administration
# Format: in vivo, Dutch-Belted rabbits
# RUN_CONDITIONS: male, Dutch-Belted, rabbit, posterior sclera and choroid, other: ocular administration, 0.08 mg/eye, formulation G, 0.08 mg/eye once, 3 hrs, An#109 right eye; read-out: Squalamine in posterior sclera and choroid
# Procedure: The objective of this study was to determine the ocular biodistribution of squalamine lactate formulation G (see composition above) when given once by ocular administration to male Dutch-Belted rabbits. The study design was as follows: Body weight measurements were taken for randomization/dose calculation purposes. […] Following dose administration, blood samples were collected at specified time points and plasma was prepared. […]
RECORDED_METRIC: concentration at 3 h

Query :: Entry CC(C)[C@@H](CC[C@@H](C)[C@H]1CC[C@H]2[C@@H]3[C@H](O)C[C@H]4C[C@@H](NCCCNCCCCN)CC[C@]4(C)[C@H]3CC[C@]12C)OS(=O)(=O)O [Squalamine] : reported concentration at 3 h = ?
Result :: 51.1 ng/g

* * *

# MEASUREMENT_NOTES: Ocular biodistribution study following ocular administration
# Assay type: in vivo, Dutch-Belted rabbits
# RUN_CONDITIONS: male, Dutch-Belted, rabbit, posterior sclera and choroid, other: ocular administration, 0.08 mg/eye, formulation G, 0.08 mg/eye once, 3 hrs, mean of eyes; read-out: Squalamine in posterior sclera and choroid, Mean
RECORDED_METRIC: concentration at 3 h (ng/g)
Give bare numbers, in ng/g.

Query :: Entry CC(C)[C@@H](CC[C@@H](C)[C@H]1CC[C@H]2[C@@H]3[C@H](O)C[C@H]4C[C@@H](NCCCNCCCCN)CC[C@]4(C)[C@H]3CC[C@]12C)OS(=O)(=O)O : reported concentration at 3 h = ?
Result :: 59.4

* * *

# MEASUREMENT_NOTES: Ocular biodistribution study following ocular administration
# Type: in vivo, Dutch-Belted rabbits
# RUN_CONDITIONS: male, Dutch-Belted, rabbit, posterior sclera and choroid, other: ocular administration, 0.08 mg/eye, formulation G, 0.08 mg/eye once, 3 hrs, An#107 left eye; read-out: Squalamine in posterior sclera and choroid
# Method: The objective of this study was to determine the ocular biodistribution of squalamine lactate formulation G (see composition above) when given once by ocular administration to male Dutch-Belted rabbits. The study design was as follows: Body weight measurements were taken for randomization/dose calculation purposes. […] Following dose administration, blood samples were collected at specified time points and plasma was prepared. […]
RECORDED_METRIC: concentration at 3 h
The answer should read as a number with its unit following.

Query :: Entry CC(C)[C@@H](CC[C@@H](C)[C@H]1CC[C@H]2[C@@H]3[C@H](O)C[C@H]4C[C@@H](NCCCNCCCCN)CC[C@]4(C)[C@H]3CC[C@]12C)OS(=O)(=O)O [Squalamine] : reported concentration at 3 h = ?
Result :: 23.9 ng/g
